Data provenance: ChEMBL document CHEMBL1201862

# key: entry, value: GI50
Tested on: A549
experiment.notes: NCI tumour cell line growth inhibition, 48 h
Activity calls are given as the source filed them. Cut-off read from the data, not from the text of the source: active = GI50 up to about 1.1 µM and inactive = higher.

# molecule, tested.target, GI50
data = [
    ("O=C1CCCC1CC(CN1CCOCC1)Sc1nnnn1-c1ccccc1 (stereo not given)", "A549", "> 100 µM (inactive)"),
    ("COc1ccc(-n2c(=O)n(C)c(=O)n2-c2ccc(OC)cc2)cc1", "A549", "> 100 µM (inactive)"),
    ("COC(=O)[C@]12CC=C3O[C@@H]4OC5(CCCCC5)O[C@@H]4C3[C@@H]1C(=O)CCC2=O (stereo not given in full)", "A549", "> 100 µM (inactive)"),
    ("CC1OC(OC2CC(O)(C(=O)CO)Cc3c(O)c4c(c(O)c32)C(=O)c2ccccc2C4=O)CC(N)C1O (stereo not given)", "A549", "< 0.01 µM (active)"),
    ("Cn1c(-c2cccs2)cc(-c2cccs2)c1-c1cccs1", "A549", "> 96.6 µM (inactive)"),
    ("O=C1c2cc3c(cc2[C@@H]2NC4CCCC14O2)OCO3 (stereo not given in full)", "A549", "> 100 µM (inactive)"),
    ("COc1ccc2c(-c3csc(-c4c[nH]c5ccccc45)n3)c[nH]c2c1", "A549", "4.98 µM (inactive)"),
    ("O=c1[nH]c2nc3ccccc3c(=O)n2nc1Cc1ccccc1", "A549", "> 100 µM (inactive)"),
    ("C/C(O)=C1\\CC2CN3CCc4c([nH]c5ccccc45)C3CC2CC1=O (stereo not given)", "A549", "> 100 µM (inactive)"),
    ("CC(C)(C)C(=O)CC1(O)C=C(O)C(O)(CC(=O)C(C)(C)C)O1 (stereo not given)", "A549", "61.7 µM (inactive)"),
]

* * *

GI50 by entry:
System: SF-295
experiment.notes: NCI tumour cell line growth inhibition, 48 h
Active and inactive are the calls of the source. No stated cut-off is given here; in the data, active = GI50 up to about 1.1 µM and inactive = higher.
quantity.measured: GI50

# compound, val
rows = [
    ("Cn1c(-c2cccs2)cc(-c2cccs2)c1-c1cccs1", "> 81.3 µM (inactive)"),
    ("[O-][Cl+3]([O-])([O-])[O-].[O-][Cl+3]([O-])([O-])[O-].c1ccn2c(N3CCOCC3)[n+]3c4ccccc4[n+]4c(N5CCOCC5)n5ccccc5c4c3c2c1", "> 100 µM (inactive)"),
    ("COc1ccc(C2OC(N)=C(C#N)C3=C2CCCC3C)cc1OC (centres undefined)", "> 100 µM (inactive)"),
    ("O=C1C(c2ccccc2)=C(c2ccccc2)C(c2ccc(CCCCCCc3ccc(C4=C(c5ccccc5)C(=O)C(c5ccccc5)=C4c4ccccc4)cc3)cc2)=C1c1ccccc1", "> 100 µM (inactive)"),
    ("CCOC(=O)Cc1nc2c(O)ncnc2n1C1OC(COC(C)=O)C(OC(C)=O)C1OC(C)=O (centres undefined)", "> 100 µM (inactive)"),
    ("CCCCNC1CCCCC[C@H]1O (some centres undefined)", "> 100 µM (inactive)"),
    ("CN(C)CCNC(=O)c1cccc2c(NCCN(C)C)c3ccccc3nc12", "4.93 µM (inactive)"),
    ("Fc1ccc(C(OCCN2CCN(CCCCl)CC2)c2ccc(F)cc2)cc1", "22.9 µM (inactive)"),
    ("N#CC(NNC(=O)c1c(Cl)c(Cl)c(Cl)c(Cl)c1-c1nc2cc(C(=O)c3ccccc3)ccc2[nH]1)c1ccccc1 (centres undefined)", "3.68 µM (inactive)"),
]

* * *

System: TK-10
experiment.notes: NCI tumour cell line growth inhibition, 48 h
Calls of active or inactive are those of the source. No stated cut-off is given here; in the data, active = GI50 up to about 1.1 µM and inactive = higher.
Listed here are compounds together with their documented GI50.

# compound, GI50
rows = [
    ("CC(C)C1=C(Cc2ccccc2)C(=O)O/C1=C\\c1cc(Cl)c(O)c(Cl)c1", "26 µM (inactive)"),
    ("COc1ccccc1C1C(C(=O)Nc2ccccc2)=C(C)NC(C)=C1C(=O)Nc1ccccc1", "89.5 µM (inactive)"),
    ("CN(C)CCC(C#N)(c1ccccc1)c1ccccc1", "60.1 µM (inactive)"),
    ("O=c1onc2c3ccccc3ncn12", "> 100 µM (inactive)"),
    ("O=C1c2c(Br)sc(Br)c2[C@H]2OC(=S)N[C@@H]12", "20.2 µM (inactive)"),
    ("CC(=O)OC12c3ccccc3C(c3ccccc31)C1C(=O)N(Nc3ccccc3)C(=O)C12 (stereo unspecified)", "> 100 µM (inactive)"),
]

* * *

Reported GI50 values for a set of molecules
Test system: SNB-19
experiment.notes: NCI tumour cell line growth inhibition, 48 h
Calls of active or inactive are those of the source. No stated cut-off is given here; in the data, active = GI50 up to about 1.1 µM and inactive = higher.

# molecule, GI50
data = [
    ("O=C(O)CSCC(=O)c1ccccc1", "> 100 µM (inactive)"),
    ("CSc1cc(Cl)c(C)cc1S(=O)(=O)NC(=O)NNc1cccc(C(F)(F)F)n1", "> 100 µM (inactive)"),
    ("CN1CCN(C2=CC(=O)c3c(O)ccc(O)c3C2=O)CC1", "1.69 µM (inactive)"),
    ("Clc1ccc(CCN[C@H]2CCCC[C@H]2N2CCCC2)cc1Cl", "25.9 µM (inactive)"),
    ("C[C@]12CC[C@H](O)CC1=CC[C@@H]1[C@@H]2CC[C@]2(C)c3nc(Cl)ccc3C[C@@H]12", "36.1 µM (inactive)"),
    ("CCOC(=O)Cc1nc2c(O)ncnc2n1C1OC(COC(C)=O)C(OC(C)=O)C1OC(C)=O (stereo not drawn)", "> 100 µM (inactive)"),
    ("CCOC(=O)Nn1c(C)nnc1-c1ccccc1", "> 100 µM (inactive)"),
    ("Cc1[nH]c2ccccc2c1C1Cc2ccccc2N1C(=O)C#Cc1ccc([N+](=O)[O-])cc1 (stereo not drawn)", "> 100 µM (inactive)"),
    ("Cc1c2c(C(N)=O)nccc2c(C)c2c1c1ccccc1n2Cc1ccccc1", "14.8 µM (inactive)"),
    ("NC(=O)c1csc(C2(O)COC(CO)C2O)n1 (stereo not drawn)", "> 100 µM (inactive)"),
    ("O=S1(=O)OCCOS(=O)(=O)C1S(=O)(=O)c1cccc2ccccc12", "> 10 µM (inactive)"),
    ("O=C(CCN1CCCC1)c1ccc(Oc2ccc(F)cc2)cc1", "> 100 µM (inactive)"),
    ("CCN(CC)CCNC(=O)c1cc2cc(NC(=O)c3cc4cc(NC(=O)c5cc6cc([N+](=O)[O-])ccc6[nH]5)ccc4[nH]3)ccc2[nH]1", "> 100 µM (inactive)"),
    ("COc1cc(N(Cc2ccc3oc(=O)c(-c4ccccc4)nc3c2)Cc2ccc3oc(=O)c(-c4ccccc4)nc3c2)cc(OC)c1OC", "> 10 µM (inactive)"),
    ("CC(C)(C)OC(=O)N1CC(CCl)c2ccc(O)cc21 (stereo not drawn)", "3.32 µM (inactive)"),
    ("O=C1CCc2ccc(O)c(c2)Oc2ccc(cc2)[C@@H]2O[C@@H]2CO1", "82.6 µM (inactive)"),
    ("C[C@H](CCC(=O)NN)[C@H]1CC[C@H]2[C@@H]3CC[C@@H]4C[C@H](O)CC[C@]4(C)[C@H]3CC[C@]12C", "97.3 µM (inactive)"),
    ("COCC1OC(OC2OCC3OC4(OCC(O)(C(C)OC)C5OCOC54)OC3C2OC)C(OC)C(O)C1OC1OC(C)C(OC)C(OC2OC(C)C3OC4(CC(O)C(OC5CC(OC6CC(C)([N+](=O)[O-])C(OC)C(C)O6)C(OC(=O)c6c(C)c(Cl)c(O)c(Cl)c6OC)C(C)O5)C(C)O4)OC3(C)C2O)C1O (stereo not drawn)", "> 100 µM (inactive)"),
]

* * *

Tested on: ACHN
experiment.notes: NCI tumour cell line growth inhibition, 48 h
Active and inactive are the calls of the source. No stated cut-off is given here; in the data, active = GI50 up to about 1.1 µM and inactive = higher.

# compound, tested.target, GI50
measured = [
    ("COC1CCC(O)C(/C=C/[N+](=O)[O-])C1 (stereo unspecified)", "ACHN", "15.7 µM (inactive)"),
    ("O=C1c2c(Br)sc(Br)c2[C@H]2OC(=S)N[C@@H]12", "ACHN", "4.45 µM (inactive)"),
    ("O=C(c1cc2c(C(F)(F)F)onc2c2ccccc12)C(F)(F)F", "ACHN", "2.89 µM (inactive)"),
    ("CCOC(=O)c1c(NC(=O)c2ccc(OC)cc2)sc2c1CCCC2", "ACHN", "> 100 µM (inactive)"),
    ("COc1cc2c3c(c1OC)-c1cc4c(cc1CC3(C#N)N(C(=O)c1ccccc1)CC2)OCO4 (stereo unspecified)", "ACHN", "40.4 µM (inactive)"),
    ("CCOC(=O)c1cc(C2(O)CCN(Cc3ccccc3)C2=O)c(-c2cc(C)no2)[nH]1 (stereo unspecified)", "ACHN", "45.5 µM (inactive)"),
    ("C=C(CCC=C(C)C)C1CC=C(C)CC1 (stereo unspecified)", "ACHN", "17.8 µM (inactive)"),
    ("O=C(CCc1nnc(S)[nH]1)Nc1cc(Cl)ccc1Cl", "ACHN", "> 100 µM (inactive)"),
    ("C=C(CO)CC(O)c1ccccc1 (stereo unspecified)", "ACHN", "> 100 µM (inactive)"),
    ("CCOC(=O)c1nn2c(nc1=O)sc1ccc3ccccc3c12", "ACHN", "> 100 µM (inactive)"),
    ("COc1ccc(C2SCC(=O)N2NC(=O)C(C)Oc2ccc(Cl)cc2Cl)cc1 (stereo unspecified)", "ACHN", "72.3 µM (inactive)"),
]
